Assay: Human HepG2 cell viability assay in 384 well format
Assay type: toxicity, cell-based
Design: dose 125 nL, time 70.5 hour; concentration not given beside the values
Conditions: HepG2 cells, read-out: Inhibition
propertyName: cytotoxicity at 70.5 h (%)
A number alone suffices; assume %.

cytotoxicity at 70.5 h reading for NC(=O)CN1CCCC(c2cncc(Nc3ncccn3)n2)C1 (stereo not given) : -6.48

cytotoxicity at 70.5 h reading for CCOC(=O)COC1CCN(C(C)=O)CC(=O)N(C)c2ccccc21 (stereo not given) : -3.91

cytotoxicity at 70.5 h reading for Cc1c[nH]c(CN2CCCCC2CCN(C)C)c(C)c1=O (stereo not given) : -10.5

cytotoxicity at 70.5 h reading for Cn1cc(CN(CC2(O)CCNC2)C2CCCCC2)cn1 (stereo not given) : 5.59

cytotoxicity at 70.5 h reading for CCc1ccc(C(=O)N2CCCC3(CCCC(=O)N3C)C2)cc1 (stereo not given) : -10.6

cytotoxicity at 70.5 h reading for Cc1ccc2occ(CN3CCN(c4ncccn4)CC3)c(=O)c2c1 : 29.4

cytotoxicity at 70.5 h reading for OC(CN1CCOCC1)c1ccc(Br)cc1 (stereo not given) : -4.1

cytotoxicity at 70.5 h reading for CCc1c(C)nc2n(c1=O)CC(C(=O)Nc1nccs1)CS2 (stereo not given) : 33.6

cytotoxicity at 70.5 h reading for Cc1csc(CCNc2ccc(C#N)cn2)n1 : -11.4

cytotoxicity at 70.5 h reading for O=S(=O)(NCC1COCCO1)c1ccc(C2CCCCC2)cc1 (stereo not given) : -4.34

cytotoxicity at 70.5 h reading for CCC[C@H]1CN(CCCO)C[C@@H]1NC(=O)Cn1cc(C)cn1 : -4.28

cytotoxicity at 70.5 h reading for CC1CCCN(c2ccc(C(N)=O)cc2NC(=O)CC2=CCNCC2)C1 (stereo not given) : -17.5

cytotoxicity at 70.5 h reading for COc1ccccc1C(=O)Nc1cc(CC(C)C)nn1C : -3.94

cytotoxicity at 70.5 h reading for COc1cc(C(=O)NCCCc2ccccc2)on1 : -1.09

cytotoxicity at 70.5 h reading for O=C(CSCC1CC1)N1CCCC(c2nccn2Cc2ccncc2)C1 (stereo not given) : -9.73

cytotoxicity at 70.5 h reading for CCOCC1CN(Cc2ccc(OC)cc2)Cc2nn(C)cc21 (stereo not given) : 25.5

cytotoxicity at 70.5 h reading for CN1CC[C@]2(CN(CC3CCOC3)C[C@H]2c2ccccc2)C1=O (stereo not given in full) : 16.2

cytotoxicity at 70.5 h reading for CCN(Cc1nnnn1C1CC1)c1cc(C)ccc1C : -2.4

cytotoxicity at 70.5 h reading for COC(=O)C(CNC(=O)Nc1nncs1)Cc1cccc(C)c1 (stereo not given) : -3.4

cytotoxicity at 70.5 h reading for OCCN1CCN(CCOCC(F)(F)F)CC1 : 10.9

cytotoxicity at 70.5 h reading for Cn1ccnc1-c1nccn1C[C@@H]1CCCN2CCCC[C@H]12 : 2.02

cytotoxicity at 70.5 h reading for CN1CCOC(CNC(=O)CCCOc2ccccc2F)C1 (stereo not given) : -15.3

cytotoxicity at 70.5 h reading for CCN(C(=O)CN(Cc1cccc(O)c1)C1CCC(O)CC1)C1CC1 (stereo not given) : -2.83

cytotoxicity at 70.5 h reading for O=C(c1coc(COc2cccc(F)c2)n1)N1CC[C@H](O)[C@@H](O)C1 : -9.89

cytotoxicity at 70.5 h reading for Cc1cc(CN2CCC3(CC2)COC(COCC2CC2)C3)no1 (stereo not given) : -9.77

Reference source for all entries: ChEMBL document CHEMBL3507680
